Reference for the values: PubChem BioAssay (NCI)

# System: DU-145 prostate
# experiment_description: NCI-60 one-dose screen, 48 h (100 = growth as untreated, 0 = no growth, -100 = all killed)
# experimental_setup: 10 µM unless noted
The panel holds about 83,000 compounds, 20% with a hit somewhere; the sample as a whole holds those more often.
Class assignment keyed on growth, ranges b0 = under 30%, b1 = from 30% up to 70%, b2 = 70% and over

Solved entries (count: 3):
Cc1nc2sc(C(=O)Nc3ccc(Cl)cc3)c(N)c2cc1C(O)c1ccccc1 (centres undefined): b1
O=C1NC(=Nc2ccc(O)cc2)S/C1=C\c1cccs1: b1
N#Cc1c(-c2ccccc2)cc(-c2ccccc2)n(CCCC(=O)NO)c1=O: b0

QUERY: Could you place "Cc1c2cnccc2c(C)c2c1c1cc(C3OCCCO3)ccc1n2C" in its proper category? Many thanks.
RESULT: b0

QUERY: What do you get for "CCOC(=O)c1c2c(n3ccccc13)C(=O)c1ncccc1C2=O" ?
RESULT: b0

QUERY: What do you get for COc1ccc(C2=CN3CC=CCC3CC2=O)cc1 (centres undefined) ?
RESULT: b2

QUERY: What do you get for "COc1cc(C(=O)c2c(-c3ccccc3)oc3c(OC)cccc23)cc(OC)c1O" ?
RESULT: b0

QUERY: What do you get for "C#CCOc1cccc(-c2ncc3cc(NC(=O)CCl)ccc3n2)c1" ?
RESULT: b0

QUERY: What do you get for "CCOC(=O)c1c(-c2ccc(Cl)cc2)c(C#N)c2c(C#N)c(N)nn2c1N" ?
RESULT: b2

QUERY: What do you get for "COc1ccc(/C=C/C(=O)c2cc3c(N)c(C(=O)Nc4ccccc4C)sc3nc2C)cc1" ?
RESULT: b0

###

# Test system: OVCAR-4 ovarian
# experiment_description: NCI-60 one-dose screen, 48 h (100 = growth as untreated, 0 = no growth, -100 = all killed)
# experimental_setup: 10 µM unless noted
# Method: Growth inhibition of the OVCAR-4 human tumor cell line is measured as a screen for anti-cancer activity. Cells are grown in 96 well plates and exposed to the test compound for 48 hours. Compounds are tested at a single concentration, which is 10^-5 M for most compounds. The reported endpoint is percent growth (GI% or GIPRCNT), where numbers from 0 - 100% represent growth inhibition, and numbers from -100% - 0 represent cell death. For example, a value of 40 represents 60% growth inhibition. […]
About 83,000 compounds went through this panel and 20% of them were active in at least one assay; those are over-represented in the sample as a whole.
Threshold 60%. growth below it: t. growth at it or above: f.

QUERY: Just wondering, is growth of "COc1ccc2nc3cc(Cl)ccc3c(NCCN)c2c1" below 60%?
RESULT: t

QUERY: What do you get for "COc1ccc2nc(SCC(=O)Nc3ccccc3C)[nH]c2c1" ?
RESULT: f

QUERY: What do you get for "CCCCCCCCn1ccc2cc(NC(=O)Cn3cc(CN4CCC(C)CC4)nn3)ccc21" ?
RESULT: f

###

# Tested on: MALME-3M melanoma
# experiment_description: NCI-60 one-dose screen, 48 h (100 = growth as untreated, 0 = no growth, -100 = all killed)
# experimental_setup: 10 µM unless noted
# Description: Cells are grown in 96 well plates and exposed to the test compound for 48 hours. Compounds are tested at a single concentration, which is 10^-5 M for most compounds. The reported endpoint is percent growth (GI% or GIPRCNT), where numbers from 0 - 100% represent growth inhibition, and numbers from -100% - 0 represent cell death. For example, a value of 40 represents 60% growth inhibition. A value of 0 means no net growth occurred over the course of the experiment. […]
The panel holds about 83,000 compounds, 20% with a hit somewhere; the sample as a whole holds those more often.
reported_endpoint: growth (%)
Give the number; % is assumed, so skip it.

Use the examples below as a reference point.
O=C1Nc2ccccc2C2c3cccn3-c3ccccc3N12 (stereo not given): 71.7
CCN1C(=O)N(CC)C2C1NN=c1s/c(=C3\C(=O)N(CCc4ccccc4)c4ccccc43)c(=O)n12 (stereo not given): 33.3
CC(C)[C@@]12C[C@@H](OC(=O)COC(=O)c3ccccc3)[C@@](C)(O1)[C@@H]1CC[C@@H](C)[C@H]1[C@@H]2OC(=O)/C=C/c1ccccc1: 106
CCCCC(=O)Nc1ncc(Cc2ccccc2Cl)s1: 52.1

API: the following record is the query input.
QUERY: Which growth is reported for this molecule? "CCCCc1oc2ccccc2c1C(=O)c1ccc(O)cc1"
RESULT: 85.4

###

# System: UACC-62 melanoma
# experiment_description: NCI-60 one-dose screen, 48 h
# experimental_setup: 10 µM unless noted
This is part of a sample that, as a whole, favours compounds with a hit. Of some 83,000 tested, about 20% had one in any assay. Calls of active or inactive are those of the source. How the source made its calls: active means growth percent below 10; inactive means the rest.
Write down the outcome that applies. Available outcomes: active, inactive

Solved entries (count: 5):
CC(C)C[C@@H](C(=O)N[C@H](C(=O)OC1CCCC1)c1ccccc1)[C@H](O)C(=O)NO: inactive
C#CCOc1ccc2ncnc(Nc3cccc(NC(=O)CCl)c3)c2c1: inactive
Oc1c(I)cc(-c2nc3ccccc3s2)cc1CN(Cc1ccccn1)Cc1ccccn1: inactive
COC(=O)/C=C1/SC(=Nc2cccc(Cl)c2)N(CCc2c[nH]c3ccc(O)cc23)C1=O: inactive
O=C(N/N=C/c1ccc([N+](=O)[O-])cc1)c1ccc2nc(-c3ccc(Cl)cc3)[nH]c2c1: inactive

QUERY: Call for entry "O=C(O)CCCc1cnc2c3sccc3nc(SCc3c(Cl)cccc3Cl)n12" :
RESULT: inactive

QUERY: What do you get for "NC(=O)c1ccc(NC(=O)c2oc3ccccc3c2-c2cnn(-c3ccccc3)c2)cc1" ?
RESULT: inactive

QUERY: What do you get for "C[N+](C)(C/C=C/c1ccccc1)Cc1ccccc1" ?
RESULT: inactive

QUERY: What do you get for "CCN(C(=O)N1CCN(c2cc3c(cc2F)c(=O)c(C(=O)O)cn3C2CC2)CC1)c1nc(-c2ccc(C)cc2)cs1" ?
RESULT: active

###

# System: MALME-3M melanoma
# experiment_description: NCI-60 one-dose screen, 48 h
# experimental_setup: 10 µM unless noted
The panel holds about 83,000 compounds, 20% with a hit somewhere; the sample as a whole holds those more often. The source made the active and inactive calls. How the source made its calls: active means growth percent below 10; inactive means the rest.
Write down the outcome that applies. Available outcomes: t = active, f = inactive

COc1ccc(NC(=O)c2ccc(C(=O)Nc3ccc(OC)cc3OC)cc2)c(OC)c1: f
COc1ccc2nc(SCC(=O)Nc3ccccc3C)[nH]c2c1: f
Cn1cc(-c2nn3cc(-c4ccccc4)nc3s2)c2ccccc21: f
COc1cc2c(c(OC)c1OC)C(=O)CC(c1cccc(NC(=O)c3ccccc3Br)c1)O2 (configuration not stated): f
COc1ccc(-c2cc(-c3cc(OC)c(OC)c(OC)c3)c(C#N)c(=O)n2CCCCCC(=O)NO)cc1: f
O=C(CBr)CN1C(=O)c2ccccc2C1=O: f

QUERY: Call for entry "O=c1[nH]c(-c2ccc(Cl)cc2)cn1-c1ccc(-n2cc(-c3ccc(Cl)cc3)[nH]c2=O)cc1" :
RESULT: f

QUERY: What do you get for "COc1ccc(OC)c(Nc2nnc(-c3ccc(Cl)cc3)o2)c1" ?
RESULT: f

QUERY: What do you get for "CCN(CC)c1ccc(/C=N/NC(=O)c2ccc(Nc3ccnc(C(F)(F)F)c3)cc2)c(O)c1" ?
RESULT: f

QUERY: What do you get for CC(O)c1ncc(/C=C2\SC(=S)N(Cc3ccccc3)C2=O)s1 (configuration not stated) ?
RESULT: f

QUERY: What do you get for "CCOC(=O)C(=Cc1cccc(C#N)c1)C(=O)OCC" ?
RESULT: f

QUERY: What do you get for "N#C/C(=C\c1ccc(-c2ccc(Cl)cc2)o1)c1ccc(Cl)cc1" ?
RESULT: f

QUERY: What do you get for COc1ccc(NC(=O)c2sc3nc(C)c(C(O)c4ccccc4)cc3c2N)cc1 (configuration not stated) ?
RESULT: f

###

# System: KM12 colon
# experiment_description: NCI-60 one-dose screen, 48 h
# experimental_setup: 10 µM unless noted
The panel holds about 83,000 compounds, 20% with a hit somewhere; the sample as a whole holds those more often. Activity calls are given as the source filed them. The calls were made as follows: active = growth percent below 10; inactive = the rest.
Write down the outcome that applies. Available outcomes: YES = active, NO = inactive

Solved entries (count: 2):
Fc1ccc2c(c1)c(-c1nc(-c3c[nH]c4ncccc34)cs1)cn2CCCN1CCOCC1: NO
O=C1NC(=Nc2ccc(O)cc2)S/C1=C\c1cccs1: NO

Here is the next item to consider.
QUERY: Call for entry "C[C@@H]1CC[C@@]2(OC1)O[C@H]1C[C@H]3[C@@H]4CC=C5C[C@@H](O[C@@H]6O[C@H](CO)[C@@H](O[C@@H]7O[C@@H](CO)[C@H](O)[C@H]7O)[C@H](O)[C@H]6O[C@@H]6O[C@@H](C)[C@H](O)[C@@H](O)[C@H]6O)CC[C@]5(C)[C@H]4CC[C@]3(C)[C@H]1[C@@H]2C" :
RESULT: YES
